test.protocol: Inhibition of rhFGF2-induced cellular proliferation of HUVEC
pIC50: −log10 of the molar value.
assay.metric: pIC50

cpd.smiles: COc1cc(OC)cc(-c2ccc3c(c2)NC(=O)/C3=C\c2[nH]c(C)c(CCC(=O)O)c2C)c1
pIC50: 4.74

cpd.smiles: COc1cccc(-c2ccc3c(c2)NC(=O)/C3=C\c2[nH]c(C)c(CCC(=O)O)c2C)c1
pIC50: 4.75
